All figures here come from patent US8293774B2.

The following compounds are listed with their measured plant injury at 25 g/ha values.
Test system: ZEAMX (Zea mays L., corn)
test_description: Weed control test, foliage treatment (Test Example 1, Table 7)
Type: in vivo
cond: Zea mays, foliar, 0.025 kg/ha, read-out: Plant damage (herbicidal activity), visually evaluated, ZEAMX
readout_label: plant injury at 25 g/ha (%)

[
  {
    "compound": "C[C@@H](Oc1ccc(C(F)=C(c2ccccc2)C(F)(F)F)cc1)C(=O)Nc1nc2cc(Cl)ccc2o1 [Example 55]",
    "tested_system": "ZEAMX (Zea mays L., corn)",
    "unit": "%",
    "readout_value": 10
  },
  {
    "compound": "C[C@@H](Oc1ccc(Oc2ccc(C#N)cc2F)cc1)C(=O)Nc1nc2ccc(Cl)cc2s1 [Example 21]",
    "tested_system": "ZEAMX (Zea mays L., corn)",
    "unit": "%",
    "readout_value": 20
  },
  {
    "compound": "C[C@@H](Oc1ccc(OC(F)=Cc2ccc(Cl)cc2)cc1)C(=O)Nc1nc2cc(Cl)ccc2o1 [Example 56]",
    "tested_system": "ZEAMX (Zea mays L., corn)",
    "unit": "%",
    "readout_value": 10
  },
  {
    "compound": "Cc1cc(NC(=O)[C@@H](C)Oc2ccc(Oc3ccc(C#N)cc3F)cc2)n(C)n1 [Example 29]",
    "tested_system": "ZEAMX (Zea mays L., corn)",
    "unit": "%",
    "readout_value": 0
  }
]
